Target: SOCS4-ElonginC-ElonginB ternary complex (human), Q8WXH5
Sequence (Q8WXH5 274-437, chain 1 of 3): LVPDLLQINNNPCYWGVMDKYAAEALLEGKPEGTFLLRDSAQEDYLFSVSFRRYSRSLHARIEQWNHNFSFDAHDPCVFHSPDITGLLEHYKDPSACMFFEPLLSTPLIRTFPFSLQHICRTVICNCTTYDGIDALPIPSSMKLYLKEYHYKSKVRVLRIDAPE
Sequence (Q15369 17-112, chain 2 of 3, further chain): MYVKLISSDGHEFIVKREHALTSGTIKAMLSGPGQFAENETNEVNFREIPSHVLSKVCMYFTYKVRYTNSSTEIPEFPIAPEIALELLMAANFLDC
Sequence (Q15370 whole entry, chain 3 of 3, further chain): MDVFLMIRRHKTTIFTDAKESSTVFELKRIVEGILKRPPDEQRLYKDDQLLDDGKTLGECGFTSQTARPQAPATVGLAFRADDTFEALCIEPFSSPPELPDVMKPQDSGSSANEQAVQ
Assay Summary: ITC; 0.3-0.4 mM peptide injected into 15 μM protein; 50 mM HEPES (pH 7.5), 150 mM NaCl, 1 mM DTT, 20°C; blank titrations subtracted; single binding site model
Run Conditions: remark: other sources report otherwise
Square brackets hold non-standard residues; d marks the D form. Ends that are not written are not given here. pY = N[C@@H](Cc1ccc(OP(=O)(O)O)cc1)C(=O)O
Assay Readout: Kd
Put your answer as a value accompanied by its unit after it.

query: So what's the measured Kd for this one? ASFE[pY]TILDPS [EpoR pY402 peptide ASFE(pY)TILDPS]
result: 7.7 µM
